- system.name: T1, Ras-GTPase-activating protein-binding protein 2 (G3BP2) NTF2 domain (human, UniProt Q9UN86 11-133)
- T1 sequence (looked up): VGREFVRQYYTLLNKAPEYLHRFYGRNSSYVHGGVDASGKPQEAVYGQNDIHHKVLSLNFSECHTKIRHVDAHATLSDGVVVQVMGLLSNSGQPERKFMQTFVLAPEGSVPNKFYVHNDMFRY
- assay: fluorescence polarisation
- experimental.parameters: both partners purified
Where no end group is shown, it is not given here.
value.kind: Kd (µM)

{"columns": ["binder", "value.kind", "measured.result"],
 "data": [
  ["APRITFGGPSDS (also: FITC label, position not given here) [FITC-N_SARS-CoV-2]", "Kd", 5.4]
]}
